- Test system: NCI/ADR-RES ovarian
- protocol-description: NCI tumour cell line growth inhibition, 48 h
recorded-metric: TGI

Given the compound C=C1C(=O)CC2C(=O)C(C)(O)CC/C=C(\C)C(=O)CC12 (stereo unspecified) , what is its reported TGI? > 100 µM

One more compound: NP(=O)(OCC1=CC(=O)c2ccccc2C1=O)N(CCBr)CCBr (stereo unspecified) > 73.4 µM

One more compound: `Cc1cc(I)cc(CN(C)CCCN2CCOCC2)c1O` > 100 µM

====

- System: T-47D breast
- protocol-description: NCI tumour cell line growth inhibition, 48 h
TGI reference

Cc1cc(N/N=C/c2nc(-c3ccc(Br)cc3)oc2C)c2cc(Br)ccc2n1 :: 3.9 µM
O=c1[nH]/c(=C/c2ccc(OCc3ccccc3)cn2)c(=O)[nH]/c1=C/c1ccc(O)cc1 :: > 63.8 µM

Given the compound `C[C@]12CCc3nc(Nc4ccccc4)sc3C1=CC[C@@H]1[C@@H]2CC[C@]2(C)/C(=N/NC(N)=S)CC[C@@H]12` , what is its reported TGI? > 100 µM

One more compound: CC(=O)N1N=C(c2ccc3ccccc3c2O)CC1C(=O)c1ccco1 (stereo unspecified) > 100 µM

One more compound: `Cc1ccc(/C(O)=C/C(=O)C(=O)/C=C(\O)c2ccc(C)cc2C)c(C)c1` 4.46 µM
